Tested on: human large cell lung cancer NCI-H460 cell
Assay: Cytotoxic action on NCI-H460 cells (WST-8, 96 hr)
Format: cell-based
Settings: NCI-H460, 96 hr
parameter_measured: pIC50
As a rule, pIC50 stands for the negative log10 of the concentration, concentration in M.

Please look up its pIC50: COC(=O)C[C@@H]1N=C(c2ccc(-c3ccc(C(=O)NCc4ccc(S(=O)(=O)Nc5ccc(C)c6c(C#N)c[nH]c56)cc4)cc3)cc2)c2c(sc(C)c2C)-n2c(C)nnc21
7.55

----------
I'd appreciate it if you could supply DC50 values for the items below.
Target: BRD4 protein (Homo sapiens (Human))
Experiment: BRD4 protein degradation inducing action in LNCaP cells (immunofluorescence, 6 hr)
Format: cell-based
Details: anti-BRD4 fluorescence intensity
Give your result in nM as a bare value.

Please look up its DC50: COC(=O)C[C@@H]1N=C(c2ccc(-c3cnc(C(=O)NCCc4ccc(S(=O)(=O)Nc5ccc(C)c6c(C#N)c[nH]c56)cc4)cn3)cc2)c2c(sc(C)c2C)-n2c(C)nnc21
0.036

Please look up its DC50: Cc1sc2c(c1C)C(c1ccc(-c3cc(F)c(C(=O)NCc4ccc(S(=O)(=O)Nc5ccc(C)c6c(C#N)c[nH]c56)cc4)c(Cl)c3)cc1)=N[C@@H](C)c1nnc(C)n1-2
65

Please look up its DC50: COC(=O)C[C@@H]1N=C(c2ccc(-c3ccc(C(=O)N[C@H](C)c4ccc(S(=O)(=O)Nc5ccc(C)c6c(C#N)c[nH]c56)cc4)c(F)c3)cc2)c2c(sc(C)c2C)-n2c(C)nnc21
0.056

Please look up its DC50: COC(=O)C[C@@H]1N=C(c2ccc(C3=CCN(C(=O)NCc4ccc(S(=O)(=O)Nc5ccc(C)c6c(C#N)c[nH]c56)cc4)CC3)cc2)c2c(sc(C)c2C)-n2c(C)nnc21
6.7

Please look up its DC50: COC(=O)C[C@@H]1N=C(c2ccc(-c3ccc(C(=O)NCc4ccc(S(=O)(=O)Nc5ccc(C)c6c(C#N)c[nH]c56)cc4)cc3F)cc2)c2c(sc(C)c2C)-n2c(C)nnc21
0.19

Please look up its DC50: CCOC(=O)C[C@@H]1N=C(c2ccc(-c3ccc(C(=O)NCc4ccc(S(=O)(=O)Nc5ccc(C)c6c(C#N)c[nH]c56)cc4)cc3)cc2)c2c(sc(C)c2C)-n2c(C)nnc21
0.033

Please look up its DC50: COc1ccc2c(c1)C(c1ccc(-c3ccc(C(=O)NCc4ccc(S(=O)(=O)Nc5ccc(C)c6c(C#N)c[nH]c56)cc4)cc3)cc1)=N[C@@H](CC(=O)OC(C)(C)C)c1nnc(C)n1-2
0.13

Please look up its DC50: COC(=O)C[C@@H]1N=C(c2ccc(-c3ccc(C(=O)NCc4ccc(S(=O)(=O)Nc5ccc(C)c6c(C#N)c[nH]c56)cc4)nn3)cc2)c2c(sc(C)c2C)-n2c(C)nnc21
0.18

Please look up its DC50: COC(=O)C[C@@H]1N=C(c2ccc(-c3ccc(C(=O)N[C@H](C)c4ccc(S(=O)(=O)Nc5ccc(C)c6c(C#N)c[nH]c56)cc4)c(Cl)c3)cc2)c2c(sc(C)c2C)-n2c(C)nnc21
0.13

Please look up its DC50: Cc1sc2c(c1C)C(c1ccc(-c3cnc(C(=O)NCc4ccc(S(=O)(=O)Nc5ccc(C)c6c(C#N)c[nH]c56)cc4)nc3)cc1)=N[C@@H](CC(=O)OC(C)(C)C)c1nnc(C)n1-2
0.13

Please look up its DC50: COC(=O)C[C@@H]1N=C(c2ccc(-c3ccc(C(=O)N[C@H](C)c4ccc(S(=O)(=O)Nc5ccc(C)c6c(C#N)c[nH]c56)cc4)cc3)cc2)c2c(sc(C)c2C)-n2c(C)nnc21
0.14

Please look up its DC50: Cc1sc2c(c1C)C(c1ccc(-c3ccc(C(=O)NCc4ccc(S(=O)(=O)Nc5ccc(C)c6c(C#N)c[nH]c56)cc4)cc3Cl)cc1)=N[C@@H](CC(=O)OC(C)(C)C)c1nnc(C)n1-2
1.6

Please look up its DC50: CCc1ccc(NS(=O)(=O)c2ccc(CCNC(=O)c3ccc(-c4ccc(C5=N[C@@H](CC(=O)OC)c6nnc(C)n6-c6sc(C)c(C)c65)cc4)cc3)cc2)c2[nH]cc(C#N)c12
0.039

FYI, the data here is from patent US11890288B2.
